Please respond with reported pIC50 for every item in the list.
Notebook: values listed as pIC50 are -log10 of the concentration (mol/L).

Ask: Reported pIC50 for Tyrosine-protein kinase BTK (Homo sapiens, UniProt Q06187), given `C=CC(=O)N1CC[C@]2(C1)C[C@H](n1c(NC(=O)c3ccc(-c4ccnc(N)c4)s3)nc3ccccc31)C2` ?
Reply: 9.20

Ask: Reported pIC50 for Tyrosine-protein kinase BTK (Homo sapiens, UniProt Q06187), given `C=CC(=O)N1CC[C@]2(C1)C[C@H](n1c(NC(=O)c3ccc(-c4cnco4)s3)nc3cc(NC)ccc31)C2` ?
Reply: 9.21

Data origin, for the record: ChEMBL document CHEMBL4196110
